- Read-out: Lipase C (LIPC), LIPC (gene 3990)
- experiment-summary: LTEA_HepaRG_LIPC: Life Technologies and Expression Analysis (LTEA) Assay for Lipase C (LIPC) using HepaRG (AID 2283514)
- recorded-conditions: mRNA level, 48 h; actives raise or lower the signal
- Procedure: LTEA_HepaRG is a cell based, multiplexed-readout assay that uses HepaRG, a human liver cell line, with measurements taken at 48 hours after chemical dosing on a 96-well plate.LTEA_HepaRG_LIPC is one of 102 assay component(s) measured in the LTEA HepaRG cell culture assay. It is a marker of Steatosis.Data from the assay component LTEA_HepaRG_LIPC was analyzed into 1 endpoint. […]
Active and inactive are the calls of the source. Rule for the calls: active = hit-call score of the fitted dose curve at least 0.9, where 1 is the maximum; inactive = score below 0.9.
experimental-endpoint: outcome

>  <compound>
CC(C)(OO)c1ccccc1

>  <experimental-endpoint>
outcome

>  <obs-value>
inactive

$$$$
>  <compound>
CN(C)N=O

>  <experimental-endpoint>
outcome

>  <obs-value>
inactive

$$$$
>  <compound>
ClC1(Cl)C2(Cl)C3(Cl)C4(Cl)C(Cl)(Cl)C5(Cl)C3(Cl)C1(Cl)C5(Cl)C24Cl (stereo not drawn)

>  <experimental-endpoint>
outcome

>  <obs-value>
inactive

$$$$

###

- experiment-summary: BSK_BT_PBMCCytotoxicity: PBMC Cytotoxicity Assessment in the BioMAP Diversity Plus: BT Assay (AID 2284225);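 note: PBMC viability measured by Alamar Blue dye reduction fluorescence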
- recorded-conditions: primary human B cells with PBMC
Activity calls are given as the source filed them. Rule for the calls: active = hit-call score of the fitted dose curve at least 0.9, where 1 is the maximum; inactive = score below 0.9.
Outcome field: choose from 1 (yes) = active, 0 (no) = inactive

These solved cases illustrate the format of a correct answer.
>  <molecule>
O=C(OC1CCCCC1)c1ccccc1C(=O)OC1CCCCC1

>  <label-value>
1 (yes)

$$$$
>  <molecule>
CCSC(C)CC1CC(=O)C(C(CC)=NOC/C=C/Cl)=C(O)C1 (configuration not stated)

>  <label-value>
0 (no)

$$$$
>  <molecule>
O=[N+]([O-])c1ccc2c3c(cccc13)CC2

>  <label-value>
0 (no)

$$$$
>  <molecule>
O=S(=O)(c1ccc(Cl)cc1)c1ccc(Cl)cc1

>  <label-value>
0 (no)

$$$$
>  <molecule>
C(=NC1CCCCC1)=NC1CCCCC1

>  <label-value>
1 (yes)

$$$$

Hello, I am checking results. What call was entered for ClC1=C(Cl)[C@]2(Cl)[C@H]3[C@H]([C@H]4C=C[C@H]3C4)[C@@]1(Cl)C2(Cl)Cl ?
1 (yes)

Hello, I am checking results. What call was entered for CC(C)CCCCCCOC(=O)c1ccccc1C(=O)OCCCCCCC(C)C ?
0 (no)

###

- Read-out: Plasminogen activator inhibitor-1 (PAI1), SERPINE1 (gene 5054)
- experiment-summary: BSK_MyoF_PAI1: BioMAP Diversity Plus: MyoF Assay for Plasminogen activator inhibitor-1 (PAI1) Biomarker Activity (AID 2284256);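 for Outcome: PAI-1 protein level measured by ELISA in fibroblast cultures; PAI-1 read 24 h after compound addition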
- recorded-conditions: primary human lung fibroblasts
Activity calls are given as the source filed them. How the source made its calls: active means hit-call score of the fitted dose curve at least 0.9, where 1 is the maximum; inactive means score below 0.9.
Outcome field: choose from class 1 (active), class 0 (inactive)

These solved cases illustrate the format of a correct answer.
>  <compound>
COC[C@H](C)N(C(=O)CCl)c1c(C)csc1C

>  <label-value>
class 0

$$$$
>  <compound>
Oc1ccc(-c2ccccc2)cc1

>  <label-value>
class 0

$$$$
>  <compound>
CC(=O)C(Cl)C(=O)N(C)C (centres undefined)

>  <label-value>
class 0

$$$$
>  <compound>
CCOC(=O)/C=C(C)/C=C/C[C@@H](C)CCCC(C)C

>  <label-value>
class 1

$$$$
>  <compound>
CC(C)CCCCCCOC(=O)c1ccccc1C(=O)OCCCCCCC(C)C

>  <label-value>
class 0

$$$$

Hello, I am checking results. What call was entered for C(=NC1CCCCC1)=NC1CCCCC1 ?
class 1

Hello, I am checking results. What call was entered for COP(=S)(OC)Oc1ccc(Sc2ccc(OP(=S)(OC)OC)cc2)cc1 ?
class 0

Hello, I am checking results. What call was entered for O=Cc1cccc(Oc2ccccc2)c1 ?
class 0

Hello, I am checking results. What call was entered for Nc1ncc([N+](=O)[O-])s1 ?
class 0

###

- experiment-summary: BSK_3C_Vis: BioMAP Diversity Plus: 3C Assay for Morphology Visualization (AID 2283025);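 note: fitted both ways so gain or loss versus DMSO counts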
- recorded-conditions: primary human endothelial cells (HUVEC)
Calls of active or inactive are those of the source. How the source made its calls: active means hit-call score of the fitted dose curve at least 0.9, where 1 is the maximum; inactive means score below 0.9.
Outcome field: choose from t (active), f (inactive)

These solved cases illustrate the format of a correct answer.
>  <compound>
CCOP(=S)(OCC)Oc1ccc(S(C)=O)cc1 (centres undefined)

>  <label-value>
f

$$$$
>  <compound>
CCC(C)(C)c1ccc(O)c(C(C)(C)CC)c1

>  <label-value>
t

$$$$
>  <compound>
COC[C@H](C)N(C(=O)CCl)c1c(C)csc1C

>  <label-value>
f

$$$$
>  <compound>
CC(C)(C)CC(C)(C)c1ccc(O)cc1

>  <label-value>
t

$$$$
>  <compound>
Oc1cccc2cccnc12

>  <label-value>
f

$$$$
>  <compound>
COP(=S)(OC)Oc1c(Cl)cc(C)cc1Cl

>  <label-value>
t

$$$$

Hello, I am checking results. What call was entered for Nc1ncc([N+](=O)[O-])s1 ?
f

Hello, I am checking results. What call was entered for Nc1cccc2ccccc12 ?
f

Hello, I am checking results. What call was entered for Nc1ccc(-c2ccc(N)c(Cl)c2)cc1Cl ?
t

Hello, I am checking results. What call was entered for CC12CC1(C)C(=O)N(c1cc(Cl)cc(Cl)c1)C2=O (centres undefined) ?
f

Hello, I am checking results. What call was entered for Oc1ccc(-c2ccccc2)cc1 ?
f

Hello, I am checking results. What call was entered for COc1cc(OC)nc(NC(=O)NS(=O)(=O)c2ncccc2C(=O)N(C)C)n1 ?
f

Hello, I am checking results. What call was entered for Cn1sc(Cl)cc1=O ?
f

Hello, I am checking results. What call was entered for O=[N+]([O-])c1ccc2c3c(cccc13)CC2 ?
t

###

- system-tested: chimpanzee Androgen Receptor (AR), AR (gene 747460) (UniProt O97775)
- Sequence (O97775 whole entry, looked up): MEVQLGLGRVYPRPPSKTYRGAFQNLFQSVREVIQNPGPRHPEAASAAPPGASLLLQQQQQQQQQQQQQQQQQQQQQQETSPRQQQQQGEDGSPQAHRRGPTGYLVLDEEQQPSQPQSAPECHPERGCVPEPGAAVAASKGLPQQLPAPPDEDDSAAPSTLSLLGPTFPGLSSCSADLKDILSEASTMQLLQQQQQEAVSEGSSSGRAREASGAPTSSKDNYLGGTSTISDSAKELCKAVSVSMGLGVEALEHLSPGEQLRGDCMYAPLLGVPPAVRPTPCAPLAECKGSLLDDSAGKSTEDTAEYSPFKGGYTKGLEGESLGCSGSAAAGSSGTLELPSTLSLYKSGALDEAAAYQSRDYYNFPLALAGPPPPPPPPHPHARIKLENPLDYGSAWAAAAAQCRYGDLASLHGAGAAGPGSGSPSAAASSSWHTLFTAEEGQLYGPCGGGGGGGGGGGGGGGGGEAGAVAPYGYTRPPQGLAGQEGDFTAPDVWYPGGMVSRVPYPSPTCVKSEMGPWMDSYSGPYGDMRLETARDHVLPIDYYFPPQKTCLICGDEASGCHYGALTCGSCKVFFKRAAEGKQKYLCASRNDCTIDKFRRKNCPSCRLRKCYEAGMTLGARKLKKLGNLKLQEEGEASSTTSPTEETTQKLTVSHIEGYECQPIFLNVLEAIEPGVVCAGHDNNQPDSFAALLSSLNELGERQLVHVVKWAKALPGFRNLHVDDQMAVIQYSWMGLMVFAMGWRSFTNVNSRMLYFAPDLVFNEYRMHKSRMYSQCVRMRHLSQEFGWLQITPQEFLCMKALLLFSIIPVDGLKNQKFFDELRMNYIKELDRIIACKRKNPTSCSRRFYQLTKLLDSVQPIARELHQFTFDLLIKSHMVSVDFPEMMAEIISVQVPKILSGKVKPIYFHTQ
- experiment-summary: NVS_NR_cAR: NovaScreen (NVS) Nuclear Receptor Binding Assay for chimpanzee Androgen Receptor (AR) (AID 2283346);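 note: radioligand displacement from AR measured by scintillation counting in a cell-free assay; a loss of bound radioligand signal versus DMSO counts as binding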
Records with an inconclusive call do not appear. Activity calls are given as the source filed them. Rule for the calls: active = hit-call score of the fitted dose curve at least 0.9, where 1 is the maximum; inconclusive = response in the unintended direction; inactive = score below 0.9.
Outcome field: choose from y (active), n (inactive)

>  <compound>
CCC[CH2][Sn]([Cl])([Cl])[Cl]

>  <label-value>
y

$$$$
>  <compound>
CC(C)C1CCC(Cc2ccc(Cl)cc2)C1(O)Cn1cncn1 (configuration not stated)

>  <label-value>
y

$$$$
>  <compound>
Clc1ccc(C2(Cn3cncn3)CC(Br)CO2)c(Cl)c1 (configuration not stated)

>  <label-value>
y

$$$$
>  <compound>
COc1cc(OC)nc(NC(=O)NS(=O)(=O)c2ncccc2C(=O)N(C)C)n1

>  <label-value>
n

$$$$
>  <compound>
Cc1ccc(N)cc1Cl

>  <label-value>
n

$$$$
>  <compound>
O=C(OC1CCCCC1)c1ccccc1C(=O)OC1CCCCC1

>  <label-value>
n

$$$$

Hello, I am checking results. What call was entered for Cl/C=C\C[N+]12CN3CN(CN(C3)C1)C2 ?
y

###

- experiment-summary: CCTE_Shafer_MEA_dev_interburst_interval_mean: CCTE's Neural Network Formation Assay for Mean Interburst Interval, Shafer Lab (AID 2284046);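 note: well-mean interburst interval of bursting electrodes as AUC over four recording days; curve fitted for decrease in interburst interval relative to DMSO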
Active and inactive are the calls of the source. How the source made its calls: active means hit-call score of the fitted dose curve at least 0.9, where 1 is the maximum; inactive means score below 0.9.
Outcome field: choose from active, inactive

These solved cases illustrate the format of a correct answer.
>  <compound>
ClC1(Cl)C2(Cl)C3(Cl)C4(Cl)C(Cl)(Cl)C5(Cl)C3(Cl)C1(Cl)C5(Cl)C24Cl (stereo unspecified)

>  <label-value>
active

$$$$
>  <compound>
CCC(=O)C(CC(C)N(C)C)(c1ccccc1)c1ccccc1 (stereo unspecified)

>  <label-value>
active

$$$$
>  <compound>
CC(=O)[O][Hg][c]1ccccc1

>  <label-value>
active

$$$$
>  <compound>
COP(=O)(OC)O/C(=C\Cl)c1cc(Cl)c(Cl)cc1Cl

>  <label-value>
inactive

$$$$
>  <compound>
O=C(O)C(F)(F)C(F)(F)C(F)(F)C(F)(F)C(F)(F)C(F)(F)C(F)(F)C(F)(F)C(F)(F)C(F)(F)F

>  <label-value>
inactive

$$$$

Now take the following compound into account.
Hello, I am checking results. What call was entered for C=C(C)C(=O)[O][Sn]([CH2]CCC)([CH2]CCC)[CH2]CCC ?
active

###

- Read-out: serum amyloid A (SAA), SAA1 (gene 6288)
- experiment-summary: BSK_CASM3C_SAA: BioMAP Diversity Plus: CASM3C Assay for serum amyloid A (SAA) Biomarker Activity (AID 2283049);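 note: SAA protein level quantified by ELISA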
- recorded-conditions: primary human coronary artery smooth muscle cells; actives raise or lower the signal
Calls of active or inactive are those of the source. How the source made its calls: active means hit-call score of the fitted dose curve at least 0.9, where 1 is the maximum; inactive means score below 0.9.
Outcome field: choose from true (1) (active), false (0) (inactive)

>  <molecule>
CCSC(C)CC1CC(=O)C(C(CC)=NOC/C=C/Cl)=C(O)C1 (configuration not stated)

>  <label-value>
false (0)

$$$$
>  <molecule>
CCOP(=S)(OCC)Oc1ccc(S(C)=O)cc1 (configuration not stated)

>  <label-value>
false (0)

$$$$

Hello, I am checking results. What call was entered for COP(=S)(OC)Oc1ccc(Sc2ccc(OP(=S)(OC)OC)cc2)cc1 ?
false (0)

Hello, I am checking results. What call was entered for CCOP(=S)(OCC)Oc1nc(Cl)c(Cl)cc1Cl ?
false (0)

Hello, I am checking results. What call was entered for COP(=S)(OC)Oc1cc(Cl)c(Cl)cc1Cl ?
true (1)

Hello, I am checking results. What call was entered for CC(C)(C)c1cc(O)ccc1O ?
false (0)

Hello, I am checking results. What call was entered for OCc1ccco1 ?
false (0)
